In this section we review reported isoTOP-ABPP reactivity ratio, Q9Y3Z3_C522 values for a set of compounds.
Target: SAMHD1 C522 (Q9Y3Z3) (Homo sapiens, UniProt Q9Y3Z3)
Sequence (Q9Y3Z3 whole entry): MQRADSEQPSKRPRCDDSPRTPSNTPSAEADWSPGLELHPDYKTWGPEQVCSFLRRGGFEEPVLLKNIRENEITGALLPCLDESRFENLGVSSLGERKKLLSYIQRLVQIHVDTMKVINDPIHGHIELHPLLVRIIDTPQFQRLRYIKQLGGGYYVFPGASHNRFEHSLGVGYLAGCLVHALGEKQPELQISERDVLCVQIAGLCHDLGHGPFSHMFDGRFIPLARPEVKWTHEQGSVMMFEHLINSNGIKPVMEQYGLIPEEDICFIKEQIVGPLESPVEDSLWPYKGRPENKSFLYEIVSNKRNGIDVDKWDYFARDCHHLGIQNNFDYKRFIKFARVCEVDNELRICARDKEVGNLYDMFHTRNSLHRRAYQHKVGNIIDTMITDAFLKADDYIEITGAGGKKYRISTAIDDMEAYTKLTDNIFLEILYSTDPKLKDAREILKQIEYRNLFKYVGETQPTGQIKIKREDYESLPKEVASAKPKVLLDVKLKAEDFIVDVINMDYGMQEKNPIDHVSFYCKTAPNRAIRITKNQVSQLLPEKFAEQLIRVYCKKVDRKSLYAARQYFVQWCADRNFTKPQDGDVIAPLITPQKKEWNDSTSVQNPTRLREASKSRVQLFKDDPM
Assay: Competitive isoTOP-ABPP, cell lysates
Type: binding
Conditions: 500 μm, in-vitro_ramos_231
Description: TEV digests were pressure loaded onto a 250 μm (inner diameter) fused silica capillary column packed with C18 resin (Aqua 5 μm, Phenomenex). The samples were analyzed by multidimensional liquid chromatography tandem mass spectrometry (MudPIT), using an LTQ-Velos Orbitrap mass spectrometer (Thermo Scientific) coupled to an Agilent 1200-series quaternary pump. […]
The answer should be a number; do not append a unit.

Example cases with answers are listed next.
C=CC(=O)Nc1cc(C)c(Br)cc1C: 0.8
COC(=O)C1Cc2ccccc2CN1C(=O)CCl (stereo not shown): 1.1
Cc1ccc(C=C(C#N)C(=O)NCCN2CCOCC2)cc1: 0.9

For the compound C=CC(=O)N(Cc1cccnc1)c1cc(C(F)(F)F)cc(C(F)(F)F)c1 , what isoTOP-ABPP reactivity ratio, Q9Y3Z3_C522 is on record? 1.5

----------
target: cysteines in MDA-MB-231 and Ramos cells (Homo sapiens, UniProt O00299); test: Competitive isoTOP-ABPP in situ (fragment-treated cells); format: cell-based; conditions: 200 μM, insitu, 231
Param label: returns criterion met when isoTOP-ABPP ratio O00299_C24 < 1, returns criterion not met otherwise, including exact equality.

Look over these answered cases.
O=C(CCl)N1CCN(S(=O)(=O)c2ccccc2F)CC1: criterion not met
O=C(CCl)NC12CC3CC(CC(C3)C1)C2: criterion met
CC(C)CCOCCNC(=O)CCl: criterion met
O=C(CCl)NC(=O)NC12CC3CC(CC(C3)C1)C2: criterion not met
C=CC(=O)N(Cc1cccnc1)c1cc(C(F)(F)F)cc(C(F)(F)F)c1: criterion met

Consider now this further molecule.
# strict comparison: is reported isoTOP-ABPP ratio O00299_C24 < 1? input = Cc1ccc(C=C(C#N)C(=O)NCCN2CCOCC2)cc1 criterion met

----------
molecular target: cysteines in MDA-MB-231 and Ramos cells (Homo sapiens); test: Competitive isoTOP-ABPP in situ (fragment-treated cells); format: cell-based; conditions: 200 μM, insitu, 231
valueKind: isoTOP-ABPP ratio Q13155_C23
The answer should be a number; do not append a unit.

Example cases with answers are listed next.
CC1CCc2ccccc2N1C(=O)CCl (centres unmarked): 4.4
O=C(CCl)NC(=O)NC12CC3CC(CC(C3)C1)C2: 1.6
O=C(CCl)NCCc1c[nH]c2ccccc12: 0.9
O=C(CCl)NC12CC3CC(CC(C3)C1)C2: 0.9
CC(C)CCOCCNC(=O)CCl: 0.7
O=C(CCl)Nc1cccc2ncccc12: 1.2

For the compound C=CC(=O)Nc1cc(F)c(N2CCN(C(=O)OC(C)(C)C)CC2)c(F)c1 , what isoTOP-ABPP ratio Q13155_C23 is on record? 1.4

Same read-out for O=C(CCl)N1CCN(S(=O)(=O)c2ccccc2F)CC1 ? 2.3

----------
molecular target: cysteines in MDA-MB-231 and Ramos cells (Homo sapiens); experiment: Competitive isoTOP-ABPP in situ (fragment-treated cells); type: cell-based; settings: 200 μM, insitu, 231
valueKind: isoTOP-ABPP ratio Q9NX18_C83
The answer should be a number; do not append a unit.

Example cases with answers are listed next.
CC1CCc2ccccc2N1C(=O)CCl (stereo not drawn) [compound 45]: 3.7
O=C(CCl)NC12CC3CC(CC(C3)C1)C2 [compound 21]: 1.3
CC(C)CCOCCNC(=O)CCl [compound 27]: 1.5

Under cysteines in MDA-MB-231 and Ramos cells (Homo sapiens): isoTOP-ABPP ratio Q9NX18_C83 value of O=C(CCl)NC(=O)NC12CC3CC(CC(C3)C1)C2 [compound 12] ? 20.0

Same read-out for O=C(CCl)N1CCN(S(=O)(=O)c2ccccc2F)CC1 [compound 10] ? 4.4

Same read-out for O=C(CCl)Nc1cccc2ncccc12 [compound 51] ? 1.0
